Where do the numbers come from? From patent US7795235B2.

- Measured on: human TLR9 (Homo sapiens, UniProt Q9NR96)
- Construct: expressed in transfected cells; host or cells: HEK 293
- Sequence (Q9NR96 26-1032): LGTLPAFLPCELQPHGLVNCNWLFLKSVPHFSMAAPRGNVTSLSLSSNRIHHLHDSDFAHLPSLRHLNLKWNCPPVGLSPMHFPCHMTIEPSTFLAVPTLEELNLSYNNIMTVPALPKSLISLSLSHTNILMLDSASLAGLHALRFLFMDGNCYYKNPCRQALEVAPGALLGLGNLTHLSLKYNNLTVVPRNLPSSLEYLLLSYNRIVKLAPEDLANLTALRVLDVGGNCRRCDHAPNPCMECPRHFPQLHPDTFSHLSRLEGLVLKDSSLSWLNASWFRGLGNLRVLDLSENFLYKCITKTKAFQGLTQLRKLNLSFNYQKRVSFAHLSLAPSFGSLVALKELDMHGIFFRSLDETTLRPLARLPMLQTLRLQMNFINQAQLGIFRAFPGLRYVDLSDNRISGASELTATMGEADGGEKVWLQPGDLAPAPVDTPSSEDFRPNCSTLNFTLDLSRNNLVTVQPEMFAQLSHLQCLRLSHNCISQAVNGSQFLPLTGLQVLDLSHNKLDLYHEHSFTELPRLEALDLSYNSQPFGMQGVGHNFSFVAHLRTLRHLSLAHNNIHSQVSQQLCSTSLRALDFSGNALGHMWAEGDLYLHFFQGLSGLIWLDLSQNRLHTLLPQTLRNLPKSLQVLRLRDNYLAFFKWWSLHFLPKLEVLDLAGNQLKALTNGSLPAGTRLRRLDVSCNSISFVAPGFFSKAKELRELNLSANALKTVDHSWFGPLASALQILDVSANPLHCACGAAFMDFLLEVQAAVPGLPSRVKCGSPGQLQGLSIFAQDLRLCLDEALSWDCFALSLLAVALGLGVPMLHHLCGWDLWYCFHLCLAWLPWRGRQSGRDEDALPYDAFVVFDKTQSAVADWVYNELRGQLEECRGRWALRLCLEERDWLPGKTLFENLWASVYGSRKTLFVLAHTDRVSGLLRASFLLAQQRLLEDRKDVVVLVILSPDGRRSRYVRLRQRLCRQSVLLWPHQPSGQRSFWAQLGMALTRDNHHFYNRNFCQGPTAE
- Method: Stimulation of TLR9-transfected cells in vitro (luciferase readout)
- Format: cell-based
- Study conditions: quotient between highest value of all concentrations tested and medium control
Oligonucleotides are written 5' to 3', each unit as a sugar letter and its base; * is a phosphorothioate linkage, no mark a phosphodiester; rarer units and linkages stand in square brackets, end groups in braces. Plain capitals give the bases only. d = 2'-deoxy (DNA)
Parameter measured: max SI (maximal stimulation index)
// response body must contain only the number

// worked examples, max SI (maximal stimulation index) included
T*T*C_G*T*C_G*T*T*T*T_G*T*C_G*T*T (DNA TTCGTCGTTTTGTCGTT; DNA, backbone and methylation of C not given here; Stabilized (*) and phosphodiester or phosphodiester-like (_) linkages) [SEQ ID NO: 5]
13
T*C_G*T*C_G*A*C_G*A*T*C_G*G*C*G*C_G*C*G*C*C*G (DNA TCGTCGACGATCGGCGCGCGCCG; DNA, backbone and methylation of C not given here; Stabilized (*) and phosphodiester or phosphodiester-like (_) linkages) [SEQ ID NO: 4]
14
T*C_G*T*C_G*T*T*C_G*G*C*G*C*G*C*C*G (DNA TCGTCGTTCGGCGCGCCG; DNA, backbone and methylation of C not given here; Stabilized (*) and phosphodiester or phosphodiester-like (_) linkages) [SEQ ID NO: 3, Semi-soft class C CpG ODN]
16
T*C_G*T*C_G*T*C_G*T*T*C_G*G*C*G*C_G*C*G*C*C*G (DNA dT*dCdG*dT*dCdG*dT*dCdG*dT*dT*dCdG*dG*dC*dG*dCdG*dC*dG*dC*dC*dG) [SEQ ID NO: 2, Semi-soft class C CpG ODN]
20
T*C_G*T*C_G*A*C_G*T*T*C_G*G*C*G*C_G*C*G*C*C*G (DNA dT*dCdG*dT*dCdG*dA*dCdG*dT*dT*dCdG*dG*dC*dG*dCdG*dC*dG*dC*dC*dG) [SEQ ID NO: 1, Semi-soft class C CpG ODN]
22

Let us examine a further case.
The substance listed as T*T*T*C_G*T*C_G*T*T*T*C_G*T*C_G*T*T (DNA TTTCGTCGTTTCGTCGTT; DNA, backbone and methylation of C not given here; Stabilized (*) and phosphodiester or phosphodiester-like (_) linkages) [SEQ ID NO: 6] has a reported max SI (maximal stimulation index) of 11
